Reported kon values follow for various binders
- study.system: T1, recombinant human sclerostin (human, UniProt Q9BQB4 24-213)
- T1 construct: biotinylated in the ELISAs; also called hu sclerostin; hu scl
- T1 sequence: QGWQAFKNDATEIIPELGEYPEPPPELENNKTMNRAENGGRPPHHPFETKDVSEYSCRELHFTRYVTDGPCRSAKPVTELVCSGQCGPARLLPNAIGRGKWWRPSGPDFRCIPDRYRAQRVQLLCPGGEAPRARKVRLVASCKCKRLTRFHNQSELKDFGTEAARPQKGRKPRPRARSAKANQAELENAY
- measurement.description: SPR
Field: numeric (M⁻¹ s⁻¹). Do not append units.

Take a look at these entries with their results.
binder	experimental.result
AE10-6-AM2 (antibody, V domains shown, converted into IgG; also called rHC + LC S4 clone 102) VH: EVQLVQSGAEVKKPGASVKVSCKVSGYTLTELSMHWVRQAPGKGLEWMGGFDPEAGETIYAQKFQGRVTMTEDTSTDTAYMELSSLRSEDTAVYYCATDGELYWYKFFQHWGQGTLVTVSS VL: QAVVTQEPSLTVSPGGTVTLTCGSSTGAVTIWHYPYWFQQKPGQAPRTLISDTNDKHSWTPARFSGSLLGGKAALTLSGAQPEDEAEYYCLLDYGGSFVFGGGTKLTVL	3.4e+06
AE10-6-AM8 (antibody, V domains shown, converted into IgG) VH: EVQLVQSGAEVKKPGASVKVSCKVSGYTLSELSIHWVRQAPGKGLEWMGGFDPEDGETIYAQKFQGRVTMTEDTSTDTAYMELSSLRSEDTAVYYCATDSAGYWYKFFQHWGQGTLVTVSS VL: QAVVTQEPSLTVSPGGTVTLTCGSSTGAVTIDHYPYWFQQKPGQAPRTLISDTDDKHSWTPARFSGSLLGGKAALTLSGAQPEDEAEYYCLLDYGGSFVFGGGTKLTVL	7.4e+06
AE10-6-AM5 (antibody, V domains shown, converted into IgG) VH: EVQLVQSGAEVKKPGASVKVSCKVSGYTLSELSMHWVRQAPGKGLEWMGGFDPEGGETIYAQKFQGRVTMTEDTSTDTAYMELSSLRSEDTAVYYCATDAGGYWYKFFQHWGQGTLVTVSS VL: QAVVTQEPSLTVSPGGTVTLTCGSSTGTVTIDHYPYWFQQKPGQAPRTLISDTDDKHSWTPARFSGSLLGGKAALTLSGAQPEDEAEYYCLLFYGGTVVFGGGTKLTVL	4.3e+06

Input AE10-6-AM3 (antibody, V domains shown, converted into IgG) VH: EVQLVQSGAEVKKPGASVKVSCKVSGYTLTELSMHWVRQAPGKGLEWMGGFDPEDGETIYAQKFQGRVTMTEDTSTDTAYMELSSLRSEDTAVYYCATDSAGYWYKFFQHWGQGTLVTVSS VL: QAVVTQEPSLTVSPGGTVTLTCGSSTGAVTIDHYPYWFQQKPGQAPRTLISDTDDKHSWTPARFSGSLLGGKAALTLSGAQPEDEAEYYCLLDYGGTFVFGGGTKLTVL , output reported kon.
7e+06

Input AE10-6-AM6 (antibody, V domains shown, converted into IgG; also called rHC + LC S4 clone 119) VH: EVQLVQSGAEVKKPGASVKVSCKVSGYTLSELSMHWVRQAPGKGLEWMGGFDPEGGETIYAQKFQGRVTMTEDTSTDTAYMELSSLRSEDTAVYYCATDTEGYWEKFFQHWGQGTLVTVSS VL: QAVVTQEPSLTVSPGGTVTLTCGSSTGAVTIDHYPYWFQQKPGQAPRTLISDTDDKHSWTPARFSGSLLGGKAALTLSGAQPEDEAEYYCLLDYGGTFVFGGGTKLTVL , output reported kon.
9.1e+06

Input AE10-6-AM7 (antibody, V domains shown, converted into IgG; also called rHC + LC S4 clone 131) VH: EVQLVQSGAEVKKPGASVKVSCKVSGYTLTELSMHWVRQAPGKGLEWMGGFDPEDGETIYAQKFQGRVTMTEDTSTDTAYMELSSLRSEDTAVYYCATDTVGYWEKFFQHWGQGTLVTVSS VL: QAVVTQEPSLTVSPGGTVTLTCGSSTGTVTIDHYPYWFQQKPGQAPRTLISDTDDKHSWTPARFSGSLLGGKAALTLSGAQPEDEAEYYCLLDYGGRFVFGGGTKLTVL , output reported kon.
7.1e+06

Attribution: patent US20150266977A1
